System: PAD
Experiment: qHTS profiling for inhibitors of Plasmodium falciparum proliferation (AID 504749); note: nearly all actives have a fitted effect of over 60% in size
Conditions: P. falciparum in erythrocytes, SYBR Green DNA, 72 h; series mostly up to 28.7 µM
Results filed as inconclusive are left out. Active and inactive are the calls of the source. Calls come from the whole dose curve; as a rule, active = well fitted inhibition curve with a large enough effect; inconclusive = small, poorly fitted or top-dose-only effect; inactive = flat fitted curve, though single readings scatter.
// one of active, inactive, no free text

Check out these entries, answers already filled in.
{"molecule": "CCCCC/C=C\\C/C=C\\CCCCCCCC(=O)O", "answer label": "inactive"}
{"molecule": "COC(=O)[C@H]1[C@H]2CC3c4[nH]c5ccccc5c4CCN3C[C@@H]2CC[C@@H]1O (stereo partly drawn)", "answer label": "inactive"}
{"molecule": "CCN(CC)Cc1cc(Nc2ccnc3cc(Cl)ccc23)ccc1O", "answer label": "active"}

Q. Dear all, I need the recorded test outcome for CC(C(=O)O)c1ccc(N2Cc3ccccc3C2=O)cc1 (stereo not drawn) , thank you.
A. inactive

Q. Could you check what this test reported for `CO[C@H]1C[C@@H]2CC[C@@H](C)[C@@](O)(O2)C(=O)C(=O)N2CCCC[C@H]2C(=O)O[C@H]([C@H](C)C[C@@H]2CC[C@@H](OCCO)[C@H](OC)C2)CC(=O)[C@H](C)/C=C(\C)[C@@H](O)[C@@H](OC)C(=O)[C@H](C)C[C@H](C)/C=C/C=C/C=C/1C` ?
A. active

Q. Any idea what this test logged for `C[C@]12O[C@H](C[C@]1(O)CO)n1c3ccccc3c3c4c(c5c6ccccc6n2c5c31)CNC4=O` ?
A. active

Q. I would be grateful if you could indicate the recorded call for `O=CCCCC=O` .
A. inactive

Q. Called result for CCCCCC(CC)COC(=O)CC(C(=O)OCC(CC)CCCC)S(=O)(=O)O (stereo not drawn)
A. inactive

----------
Test system: OV90
Assay: Primary qHTS to identify gynecologic anti-cancer compounds using libraries of approved drugs and bioactive compounds (AID 1345084); note: % is set by controls: 0 for no effect and ±100 for the full control effect; nearly all actives have a fitted effect of over 55% in size
Conditions: Gynecologic cancer cell panel viability, ATPlite luminescence, 48 h; series mostly up to 57.5 µM
Records with an inconclusive call do not appear. Activity calls are given as the source filed them. Calls follow the shape of the dose curve; as a rule, active = well fitted cell-killing curve with a large enough effect; inconclusive = small, poorly fitted or top-dose-only effect, or effect the other way; inactive = flat fitted curve, though single readings scatter.
measure name: activity change, negative = cytotoxicity

{"compound": "Cc1cc(C)cc(NC(=O)Cc2ccc(OC(C)(C)C(=O)O)cc2)c1", "value reported": "inactive"}
{"compound": "COCC(=O)N1CCc2cc(-c3csc(NC(=O)c4cc(OC)cc(OC)c4)n3)ccc21", "value reported": "inactive"}
{"compound": "C[C@@H]1CC[C@]2(C(=O)O)CC[C@]3(C(=O)O)C(=CCC4[C@@]5(C)CC[C@H](O[C@@H]6O[C@@H](C)[C@H](O[C@@H]7O[C@H](CO)[C@@H](O)[C@H](O)[C@H]7O)[C@@H](O)[C@H]6O)C(C)(C)C5CC[C@]43C)C2[C@H]1C (stereo not given in full)", "value reported": "inactive"}
{"compound": "O=C(COc1ccc(Cl)cc1)NC1CCC(NC(=O)COc2ccc(Cl)cc2)CC1 (stereo not given)", "value reported": "inactive"}

C[C@@H]1O[C@@H](O[C@H]2[C@H](OC(=O)[C@]34CCC(C)(C)C[C@H]3C3=CCC5[C@@]6(C)C[C@H](O)[C@H](O[C@@H]7O[C@H](CO)[C@@H](O[C@@H]8O[C@H](CO)[C@@H](O)[C@H](O)[C@H]8O)[C@H](O)[C@H]7O)[C@@](C)(CO)C6[C@H](O)C[C@@]5(C)[C@]3(C)C[C@H]4O)OC[C@H](O)[C@@H]2O)[C@H](O)[C@H](O)[C@H]1O[C@@H]1OC[C@@H](O)[C@H](O[C@@H]2OC[C@](O)(CO)[C@H]2O)[C@H]1O (stereo not given in full) has a reported activity change, negative = cytotoxicity of 4.05% [at 6.55 µM] (inactive)
